Tested on: RXF 631
Assay: NCI tumour cell line growth inhibition, 48 h
The source made the active and inactive calls. Cut-off read from the data, not from the text of the source: active = GI50 up to about 1.1 µM and inactive = higher.
Possible outcomes: 1 (active), 0 (inactive)

[[record]]
compound = "OC1CC1Sc1ccccc1 (centres undefined)"
system_name = "RXF 631"
group_label = 0

[[record]]
compound = "COc1c(CC(=O)c2ccccc2)c2ccccc2n1C(C)=O"
system_name = "RXF 631"
group_label = 0

[[record]]
compound = "CC[C@@]1(OC(=O)CCC(=O)O)C(=O)OCc2c1cc1n(c2=O)Cc2cc3ccccc3nc2-1"
system_name = "RXF 631"
group_label = 1

[[record]]
compound = "N=C(N)Nc1nc2cc(N)ccc2o1"
system_name = "RXF 631"
group_label = 0


---

Tested on: SF-268
Assay: NCI tumour cell line growth inhibition, 48 h
Structures can show the parent of a compound that is named as a salt. The source made the active and inactive calls. No stated cut-off is given here; in the data, active = GI50 up to about 1.1 µM and inactive = higher.
Possible outcomes: y for active, n for inactive

[[record]]
molecule = "CCCN1CN(C(C(=O)N[C@@H]2C(=O)N3C(C(=O)O)=C(C)CSC23)c2ccc(O)cc2)CSC1=S (stereo not given in full)"
group_label = "n"

[[record]]
molecule = "CC1CC/C(=C\\c2ccc(F)cc2)C2=C1C(c1ccc(F)cc1)n1c(s/c(=C/c3cccc(Br)c3)c1=O)=N2 (stereo not given)"
group_label = "n"

[[record]]
molecule = "O=C1Nc2ccccc2C1=Nc1ccc(S(=O)(=O)Nc2nccs2)cc1"
group_label = "n"

[[record]]
molecule = "CN(Cc1cnc2nc(N)nc(N)c2n1)c1ccc(C(=O)NC(CCC(=O)O)C(=O)O)cc1C(F)(F)F (stereo not given)"
group_label = "y"

[[record]]
molecule = "CN(C)c1ccc(/C=C2\\C=Cc3ccccc32)cc1"
group_label = "n"

[[record]]
molecule = "O=C(Cc1nc2ccc([N+](=O)[O-])cc2nc1O)C(=O)Nc1ccccc1[N+](=O)[O-]"
group_label = "n"

[[record]]
molecule = "COc1ccc(CN2C(=O)C(=O)N(C)C2=O)c2ccccc12"
group_label = "n"

[[record]]
molecule = "CO/N=C(/C(=O)OC)c1ccccc1COc1cccc(C(F)(F)F)c1"
group_label = "n"

[[record]]
molecule = "O=C1N(Cl)C(=O)C(c2ccc(Cl)cc2)(c2ccc(Cl)cc2)N1Cl"
group_label = "n"

[[record]]
molecule = "COc1cc2c(cc1OC)C(Cc1ccc(Oc3cc(CC4c5cc(OC)c(OC)cc5CCN4C)ccc3O)cc1)N(C)CC2 (stereo not given)"
group_label = "n"

[[record]]
molecule = "CC1c2ccccc2Cn2cc3c(c21)C(=O)c1cccc(OP(=O)(O)OCc2ccccc2)c1C3=O (stereo not given)"
group_label = "n"

[[record]]
molecule = "COc1cc(C[S+]([O-])c2ccc(O)cc2)cc(OC)c1OC (stereo not given)"
group_label = "n"

[[record]]
molecule = "OC1CC1Sc1ccccc1 (stereo not given)"
group_label = "n"

[[record]]
molecule = "CN(C)c1n2c3cc([N+](=O)[O-])ccc3[n+]3c(N(C)C)n4ccccc4c3c2c2cccc[n+]12.[O-][Cl+3]([O-])([O-])[O-].[O-][Cl+3]([O-])([O-])[O-]"
group_label = "n"

[[record]]
molecule = "Cc1c(/N=N/c2ccc([N+](=O)[O-])cc2)nc2scc(-c3ccccc3)n12"
group_label = "n"

[[record]]
molecule = "Cc1ccc(S(=O)(=O)Nc2nnc(S(N)(=O)=O)s2)cc1"
group_label = "n"

[[record]]
molecule = "Cc1ccc(/N=N/c2c(O)ccc3ccccc23)cc1"
group_label = "n"

[[record]]
molecule = "C/C(=N\\NC(N)=O)C(CN1CCOCC1)C(c1ccccc1)c1c(O)c2ccccc2oc1=O (stereo not given)"
group_label = "n"

[[record]]
molecule = "CSC(=NC1=NC(C(F)(F)F)(C(F)(F)F)N=C(c2ccccc2)O1)SC"
group_label = "n"

[[record]]
molecule = "COc1cccc(/C=C2\\SC(=S)N(/C=C3\\C(=O)Oc4ccccc4C3=O)C2=O)c1O"
group_label = "n"

[[record]]
molecule = "CCC1(N=[N+]=[N-])C(=O)Nc2cc(C)ccc2C1=O (stereo not given)"
group_label = "n"

[[record]]
molecule = "NC(=O)c1cc2cc(Cl)cc(Cl)c2o/c1=N\\c1ccc(F)cc1"
group_label = "n"

[[record]]
molecule = "CC(=O)N1C(=O)/C(=C\\C(=O)c2ccc([N+](=O)[O-])cc2)c2ccccc21"
group_label = "n"

[[record]]
molecule = "CCOCN/C(N)=N\\C#N"
group_label = "n"

[[record]]
molecule = "Cc1ccc([N+](=O)[O-])cc1S(=O)(=O)Nc1ccc(C2=NOC(c3cccs3)C2)cc1 (stereo not given)"
group_label = "n"

[[record]]
molecule = "S=C1NC(c2ccccc2)=NC(Cc2ccccc2)(c2ccccc2)N1c1ccccc1 (stereo not given)"
group_label = "n"

[[record]]
molecule = "CN(C)c1ccc(/C=C(\\NC(=O)c2ccccc2)c2nc3cncnc3[nH]2)cc1"
group_label = "n"

[[record]]
molecule = "O=C1NC(Nc2ccccc2)=NC(C(F)(F)F)(C(F)(F)F)N1"
group_label = "n"

[[record]]
molecule = "N=C(N)Nc1nc2cc(N)ccc2o1"
group_label = "n"

[[record]]
molecule = "Clc1ccc(C(c2ccccc2Cl)C(Cl)Cl)cc1 (stereo not given)"
group_label = "n"

[[record]]
molecule = "CC(C)C1CC(CO)(CNc2cc(Cl)nc(N)n2)C1 (stereo not given)"
group_label = "n"

[[record]]
molecule = "CC(=O)O/C=C\\OC1CCCC1"
group_label = "n"

[[record]]
molecule = "COC(=O)/C=C/COCC1C2CCC(=O)C21 (stereo not given)"
group_label = "n"

[[record]]
molecule = "CCCCCCCCCCCCCCCCCCNc1ccn(C2OC(COP(=O)(O)OCC(COP(=O)(O)OCC3OC(n4cc(C)c(=O)[nH]c4=O)CC3N=[N+]=[N-])OCCCCCCCCCCCCCCCCCC)C(O)C2O)c(=O)n1 (stereo not given)"
group_label = "n"

[[record]]
molecule = "COc1cccc(NC(=O)/C(CC(=O)CC(c2ccccc2)c2c(O)c3ccccc3oc2=O)=N\\NC(C)(C)C)c1OC (stereo not given)"
group_label = "n"

[[record]]
molecule = "COc1ccc(Cc2nccc3cc(OC)c(OC)cc23)cc1OC [PAPAVERINE HYDROCHLORIDE]"
group_label = "n"

[[record]]
molecule = "COc1cc(C2C(Cl)C(=O)N2c2c(C)n(C)n(-c3ccccc3)c2=O)ccc1O (stereo not given)"
group_label = "n"

[[record]]
molecule = "COc1ccc(/C=C2/C(=O)C(c3ccccc3)N(c3ccccc3)C2=O)cc1OC (stereo not given)"
group_label = "n"

[[record]]
molecule = "CN(C)c1ccc(C=c2c3cc(O)ccc3n3c2cc(-c2ccccc2)[n+]3C)cc1"
group_label = "y"

[[record]]
molecule = "O=C1C(Cl)C(c2ccc(Cl)cc2)N1n1cnc2ccccc2c1=O (stereo not given)"
group_label = "n"


---

System: DU-145
Assay: NCI tumour cell line growth inhibition, 48 h
The source made the active and inactive calls. Rule as the data show it: active = GI50 up to about 1.1 µM and inactive = higher.
Readings of GI50 for the listed molecules
Measured parameter: GI50

[[record]]
molecule = "CCC(CCC(C)C1CCC2C3CC=C4CC(OC5OC(CO)C(O)C(O)C5O)CCC4(C)C3CCC12C)C(C)C (stereo not given)"
measured_value = "> 100 µM (inactive)"

[[record]]
molecule = "N=C(N)NS(=O)(=O)c1ccc(NCc2cccc3c(=O)c4ccc(Cl)cc4oc23)cc1"
measured_value = "5.57 µM (inactive)"

[[record]]
molecule = "CO/N=C(/C(=O)OC)c1ccccc1COc1cccc(C(F)(F)F)c1"
measured_value = "26.5 µM (inactive)"

[[record]]
molecule = "O=C(Nc1cc(C(=O)Nc2cccc(S(=O)(=O)O)c2)cc(C(=O)Nc2cccc(S(=O)(=O)O)c2)c1)c1cccc(C(=O)Nc2cc(C(=O)Nc3cccc(S(=O)(=O)O)c3)cc(C(=O)Nc3cccc(S(=O)(=O)O)c3)c2)c1"
measured_value = "> 100 µM (inactive)"

[[record]]
molecule = "COCn1c(=O)n(C)c(=O)c2c1nc1c(c(=O)n(C)c(=O)n1COC)[n+]2[O-]"
measured_value = "17.1 µM (inactive)"


---

System: BT-549
Assay: NCI tumour cell line growth inhibition, 48 h
Active and inactive are the calls of the source. No stated cut-off is given here; in the data, active = GI50 up to about 1.1 µM and inactive = higher. Peptide text beside a SMILES is read from it. * marks the point of attachment. Cbz = O=C(OCc1ccccc1)*; NHNH2 = NN*
Measured parameter: GI50

[[record]]
molecule = "CN(C)CCNC(=O)c1cccc2c(NC(CCC(N)=O)C(=O)O)c3ccccc3nc12 (stereo not drawn)"
measured_parameter = "GI50"
measured_value = "10.5 µM (inactive)"

[[record]]
molecule = "COC(=O)CC(NC(=O)OCc1ccccc1)C(=O)NC(CC(=O)OC)C(=O)NC(CC(=O)OC)C(=O)NC(CC(=O)OC)C(=O)NC(CC(=O)OC)C(=O)NC(CC(=O)OC)C(=O)NN (stereo not drawn) (Cbz-D(OMe)D(OMe)D(OMe)D(OMe)D(OMe)D(OMe)-NHNH2; configuration not given here)"
measured_parameter = "GI50"
measured_value = "> 100 µM (inactive)"

[[record]]
molecule = "O=C(O)CC(NC(=O)Nc1ccc([N+](=O)[O-])cc1)C(=O)Nc1ccc([N+](=O)[O-])cc1 (stereo not drawn)"
measured_parameter = "GI50"
measured_value = "> 100 µM (inactive)"

[[record]]
molecule = "O=C1c2c(Br)sc(Br)c2C(=O)C1(O)O"
measured_parameter = "GI50"
measured_value = "19.3 µM (inactive)"

[[record]]
molecule = "COC(=O)C1(C)CCCC2(C)c3cc(OC)ccc3C(=O)C(Br)C12 (stereo not drawn)"
measured_parameter = "GI50"
measured_value = "> 10 µM (inactive)"

[[record]]
molecule = "CCOC(=O)CC(=O)Nc1cccc2sc3ncccc3c(=O)c12"
measured_parameter = "GI50"
measured_value = "43.4 µM (inactive)"

[[record]]
molecule = "COc1ccc2c(c1)CCCN1CCc3cc(OC)c(OC)cc3C21 (stereo not drawn)"
measured_parameter = "GI50"
measured_value = "4.09 µM (inactive)"

[[record]]
molecule = "O=C1Nc2ccc(S(=O)(=O)O)cc2/C1=C1/Nc2ccc(Br)cc2C1=O"
measured_parameter = "GI50"
measured_value = "> 100 µM (inactive)"

